Source: ChEMBL document CHEMBL3232757

TEST: Cytotoxicity against human NCI-H929 cells after 3 days by Alamar blue assay
Format: functional, cell-based
CONDITION NOTES: NCI-H929, 72 h
pIC50: −log10 of the molar value. Peptide text beside a SMILES is read from it. * marks the point of attachment. Cbz = O=C(OCc1ccccc1)*
Given measured pIC50, output fulfilled if it is greater than or equal to 6 and not fulfilled if not.

CC1=C(CO)C(=O)O[C@@H]([C@@H](C)[C@H]2CC[C@H]3[C@@H]4C[C@H]5O[C@]56[C@@H](O)[C@@H](n5cnc7c(N)ncnc75)CC(=O)[C@]6(C)[C@H]4CC[C@]23C)C1
fulfilled

pIC50 >= 6 for `CC1=C(CO)C(=O)O[C@@H]([C@@H](C)[C@H]2CC[C@H]3[C@@H]4CC=C5[C@@H](O)C=CC(=O)[C@]5(C)[C@H]4CC[C@]23C)C1` ?
not fulfilled

pIC50 >= 6 for CC(C)C[C@@H](C=O)NC(=O)[C@H](CC(C)C)NC(=O)[C@H](CC(C)C)NC(=O)OCc1ccccc1 [MG-132] (Cbz-Leu-Leu-Leu-aldehyde) ?
fulfilled

pIC50 >= 6 for `CC1=C(CO)C(=O)O[C@@H]([C@@H](C)[C@H]2CC[C@H]3[C@@H]4CC=C5C[C@@H](O)C[C@H](O)[C@]5(C)[C@H]4CC[C@]23C)C1` ?
not fulfilled

====

TEST: Cytotoxicity against human NCI-H929 cells after 3 days by Alamar blue assay
Assay type: functional, cell-based
CONDITION NOTES: NCI-H929, 72 h
QUANTITY NAME: IC50

Solved cases (4 shown):
CC(=O)OCC1=C(C)C[C@H]([C@@H](C)[C@H]2CC[C@H]3[C@@H]4CC=C5C(OC(C)=O)C=CC(=O)[C@]5(C)[C@H]4CC[C@]23C)OC1=O (single isomer, unassigned)
1630 nM
CC(=O)OCC1=C(C)C[C@H]([C@@H](C)[C@H]2C[C@@H](OC(C)=O)[C@H]3[C@@H]4C[C@H]5O[C@]56[C@@H](OC(C)=O)C=CC(=O)[C@]6(C)[C@H]4CC[C@@]32C)OC1=O
240 nM
CC1=C(CO)C(=O)O[C@@H]([C@@H](C)[C@H]2CC[C@H]3[C@@H]4C[C@H]5O[C@]56[C@@H](O)CCC(=O)[C@]6(C)[C@H]4CC[C@]23C)C1
> 10000 nM
CC1=C(CO)C(=O)O[C@@H]([C@@H](C)[C@H]2CC[C@H]3[C@@H]4C[C@H]5O[C@]56C(=O)C=CC(=O)[C@]6(C)[C@H]4CC[C@]23C)C1
1160 nM

Consider the record given below.
Tell me the measured IC50 of `CC(=O)O[C@H]1C=CC(=O)[C@]2(C)[C@H]3CC[C@]4(C)[C@@H]([C@H](C)[C@H]5CC(C)=C(C)C(=O)O5)CC[C@H]4[C@@H]3C[C@H]3O[C@]132` , please.
430 nM

====

TEST: Cytotoxicity against human CHP100 cells assessed as inhibition of cell survival after 24 hrs by MTT assay
Format: functional, cell-based
CONDITION NOTES: CHP100, 24 h
Property: IC50; scope: individual compounds
Give your result in nM as a bare value.

Solved cases (3 shown):
CC1=C(CO)C(=O)O[C@@H]([C@@H](C)[C@H]2CC[C@H]3[C@@H]4C[C@H]5O[C@]56[C@@H](O)C=CC(=O)[C@]6(C)[C@H]4CC[C@]23C)C1
970
CC(=O)O[C@H]1C=CC(=O)[C@]2(C)[C@H]3CC[C@]4(C)[C@@H]([C@H](C)[C@H]5CC(C)=C(C)C(=O)O5)CC[C@H]4[C@@H]3C[C@H]3O[C@]132
760
CC1=C(CO)C(=O)O[C@@H]([C@@H](C)[C@H]2CC[C@H]3[C@@H]4C[C@H]5O[C@]56[C@@H](O)[C@@H](N=[N+]=[N-])CC(=O)[C@]6(C)[C@H]4CC[C@]23C)C1
810

Consider the record given below.
Tell me the measured IC50 of `CC(=O)OCC1=C(C)C[C@H]([C@@H](C)[C@H]2CC[C@H]3[C@@H]4C[C@H]5O[C@]56[C@@H](OC(C)=O)C=CC(=O)[C@]6(C)[C@H]4C[C@@H](OC(C)=O)[C@]23C)OC1=O` , please.
280
